Each record here notes measured melting point.
Number in °C, nothing else.

Clc1ccc(C2(Cn3cncn3)CC(Br)CO2)c(Cl)c1 (stereo not drawn) = 84
CC1(C)C(=O)N(Cl)C(=O)N1Cl = 132
CC(C)(C)C(=O)C(Oc1ccc(Cl)cc1)n1cncn1 (stereo not drawn) = 82
CC(CC(C(N)=O)(c1ccccc1)c1ccccc1)N(C)C (stereo not drawn) = 137
CC(C)(Oc1ccc(Cl)cc1)C(=O)OCCCOC(=O)C(C)(C)Oc1ccc(Cl)cc1 = 52
CCC(C(N)=O)c1ccccc1 (stereo not drawn) = 86
NC(Cc1cc(Br)c(O)c(Br)c1)C(=O)O (stereo in doubt) = 245

Continue with the compound presented below.
Query: Can you share its melting point? I mean this compound: `CCS`
Result: -148
